Where do the numbers come from? From PubChem BioAssay (EPA / NIEHS).

# assay-overview: ATG_PXRE_CIS: Attagene CIS-FACTORIAL HepG2 Assay for human Pregnane X Receptor Element (PXRE) (AID 2282957)
# experimental-context: HepG2 Attagene CIS-FACTORIAL PXRE reporter, mRNA; actives raise or lower the signal
Active and inactive are the calls of the source. The calls were made as follows: active = hit-call score of the fitted dose curve at least 0.9, where 1 is the maximum; inactive = score below 0.9.
property: AC50

Some solved cases for reference:
compound: COc1ccc(COC(C)=O)cc1
AC50: inactive
//
compound: Nc1ccccc1[N+](=O)[O-]
AC50: inactive
//
compound: C[Si](C)(C)O[Si](C)(C)C
AC50: inactive
//
compound: C/C=C(\C)C(=O)OCCc1ccccc1
AC50: 27.7 µM (active)
//
compound: CCCCCCCCC=CCCCCCCCC1=NCCN1CCO
AC50: 60.6 µM (active)
//
compound: Cc1cc(CCC(=O)OCCOCCOCCOC(=O)CCc2cc(C)c(O)c(C(C)(C)C)c2)cc(C(C)(C)C)c1O
AC50: 24.3 µM (active)
//
compound: O=C1OC[C@H](Cc2cccc(O)c2)[C@H]1Cc1cccc(O)c1
AC50: 5.12 µM (active)
//
compound: CCC(Cl)C(Cl)C(Cl)CC(Cl)C(Cl)C(C)Cl (stereo not drawn)
AC50: 0.885 µM (active)
//
compound: COC(=O)Nc1ccc(Cl)c(Cl)c1
AC50: 100 µM (active)
//
compound: O=C1CCCC=CCCCCCCCCCC1
AC50: 9.05 µM (active)

// moving on: another record for AC50
Could you tell me which AC50 is on file for CN(C)c1cccc(O)c1 ?
6.77 µM (active)

---

# assay-overview: ATG_ISRE_CIS: Attagene CIS-FACTORIAL HepG2 Assay for human Interferon Regulatory Factor 1 (IRF1) binding to an Interferon-Stimulated Response Element (ISRE) (AID 2282948)
# experimental-context: HepG2 ISRE cis-reporter (Attagene), mRNA transcription readout; actives raise or lower the signal
Calls of active or inactive are those of the source. How the source made its calls: active means hit-call score of the fitted dose curve at least 0.9, where 1 is the maximum; inactive means score below 0.9.
Lab note: assign the record to one of active, inactive

Hi, do you know how C=Cc1ccncc1 came out in this test?
active

Please do the same for O=Cc1ccccc1S(=O)(=O)O as well.
inactive

Can you handle C=C(CC(=O)O)C(=O)O next?
inactive

Now consider Cc1ccc(N)c(S(=O)(=O)O)c1 .
inactive

Would you kindly repeat that for CCC1(c2ccccc2)C(=O)NCNC1=O ?
inactive

Would you kindly repeat that for CC/C=C\CCOC(=O)CC ?
inactive

Please do the same for C=C(C)C1CC=C(C)C(=O)C1 (stereo unspecified) as well.
inactive

Try the molecule C=C(C)C(=O)OCCOCCOCCOC(=O)C(=C)C
inactive

And the next one, CCCCCCCCSCCO ?
inactive

// query: C=C(C)C(=O)OCCOC1CC2CC1C1C=CCC21 (stereo unspecified)
inactive

For NCc1ccco1 then?
inactive

Can you check CC(C)(N=C=O)c1cccc(C(C)(C)N=C=O)c1 next?
inactive

Would you kindly repeat that for CC(=O)CC(=O)Nc1ccccc1 ?
inactive

What would you report for CC1CC(O)CC(C)(C)C1 (stereo unspecified) ?
inactive

Now try CCOC(=O)[C@@H](C)Oc1ccc(Oc2nc3ccc(Cl)cc3o2)cc1 .
inactive

Another molecule to look at: CC(=O)C1(C)CC2=C(CCCC2(C)C)CC1C (stereo unspecified)
active

Do the same for COC(=O)C=C(C)CCC=C(C)C please
inactive

For CCCCC1CCC(O)CC1 (stereo unspecified) then?
inactive

Same again, this time with NC1CCCCC1N (stereo unspecified)
inactive

And then CCCCCCC(C)Nc1ccc(Nc2ccccc2)cc1 (stereo unspecified) , what is it?
inactive

What about COC(=O)c1ccc(OC)cc1 ?
inactive

How about this molecule: CC1=CC[C@@]23C[C@@H]1C(C)(C)[C@@H]2CC[C@H]3C
inactive

Try this molecule too: COc1cc(Cl)c(OC)cc1N
inactive

// repeat for COC(=O)Nc1ccc(Cl)c(Cl)c1 and report
active

What about CC(C)=CCCC(C)CCOC=O (stereo unspecified) ?
inactive

Can you check CCCCCCOCCOCCO next?
inactive

Lookup CCCCCCCC/C=C\CCCCCCCC(=O)OCC
inactive

Also check Cc1[nH]c(=O)c(C#N)cc1-c1ccncc1
inactive

Continue with CCCCCCOC(=O)CCC
inactive

What do we get for CC(=O)O[C@@H]1C[C@@H]2CC[C@@]1(C)C2(C)C ?
inactive

Queued: Cc1ncc([N+](=O)[O-])n1CCO
inactive

Next molecule: CN(C)C(=S)SC(=S)N(C)C
inactive

Here is the next molecule: CCC(C)S (stereo unspecified)
inactive

Let us now turn to CN(C)CCOc1ccc(/C(=C(/CCCl)c2ccccc2)c2ccccc2)cc1
inactive

Continue with OC[C@H]1O[C@@H](Oc2ccc(O)cc2)[C@H](O)[C@@H](O)[C@@H]1O
inactive

What would you report for CC(C)c1ccccc1O ?
inactive

---

# assay-overview: BSK_CASM3C_SRB: Viability Assessment in the BioMAP Diversity Plus: CASM3C Assay (AID 2283050);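 also: total protein by SRB staining as cytotoxicity measure in parallel cultures; cells exposed to compound for 24 h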
# experimental-context: primary human coronary artery smooth muscle cells
Active and inactive are the calls of the source. How the source made its calls: active means hit-call score of the fitted dose curve at least 0.9, where 1 is the maximum; inactive means score below 0.9.
Form entry, call: pick from active, inactive

Lab log entry: CCCCOC(=O)CCCCCCCC(=O)OCCCC — outcome as called in the assay?
inactive

Try CC(CN=Cc1ccccc1O)N=Cc1ccccc1O (stereo not given) next.
inactive

And what about the compound C=C(C)C(=O)OCCOCCOCCOC(=O)C(=C)C ?
inactive

Moving on to the next compound: CC(=O)C1(C)CC2=C(CCCC2(C)C)CC1C (stereo not given)
active

Could you do the same for CCCCCC(C=O)=Cc1ccccc1 , please?
active

---

# assay-overview: BSK_3C_uPAR: BioMAP Diversity Plus: 3C Assay for Urokinase-type plasminogen activator receptor (uPAR) Biomarker Activity (AID 2282998)
# experimental-context: BioMAP 3C HUVEC, uPAR biomarker ELISA; actives raise or lower the signal
The source made the active and inactive calls. Rule for the calls: active = hit-call score of the fitted dose curve at least 0.9, where 1 is the maximum; inactive = score below 0.9.
Choose the fitting class; nothing outside active, inactive is accepted.

Answer briefly: the call reported for IC(I)I in this assay.
inactive

Another molecule to check: Cc1cc(CCC(=O)OCCOCCOCCOC(=O)CCc2cc(C)c(O)c(C(C)(C)C)c2)cc(C(C)(C)C)c1O
active

Next molecule: C=C(C)C(=O)OCC(CC)(COC(=O)C(=C)C)COC(=O)C(=C)C
inactive

Continue with O=C1c2ccccc2C(=O)c2c(O)ccc(O)c21
active

What about this molecule? CCCCCCC(CO)CCCC (stereo not given)
inactive

---

# system-name: Nuclear receptor subfamily 1 group I member 2 (Homo sapiens)
# assay-overview: NVS_NR_hPXR: NovaScreen (NVS) Nuclear Receptor Binding Assay for human Pregnane X Receptor (PXR) (AID 2283365);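 also: a drop in FRET signal versus DMSO baseline means the compound binds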
Results filed as inconclusive are left out. The source made the active and inactive calls. The calls were made as follows: active = hit-call score of the fitted dose curve at least 0.9, where 1 is the maximum; inconclusive = response in the unintended direction; inactive = score below 0.9.
property: outcome

molecule: OCCc1ccccc1
endpoint-value: inactive
//
molecule: O=C(O)c1ccc(O)cc1
endpoint-value: inactive
//
molecule: Cc1ccc(S(N)(=O)=O)cc1
endpoint-value: inactive
//
molecule: CCCCC(CC)COC(C)=O (centres undefined)
endpoint-value: inactive

---

# assay-overview: ATG_CRE_CIS: Attagene CIS-FACTORIAL HepG2 Assay for human cAMP Responsive Element (CRE) binding protein 3 (AID 2282926)
# experimental-context: HepG2 CRE cis-reporter, Attagene multiplexed mRNA; actives raise or lower the signal
# Description: ATG_CIS is a cell-based, multiplexed-readout assay that uses HepG2, a human liver cell line, with measurements taken at 24 hours after chemical dosing in a 24-well plate.ATG_CRE_CIS is one of 52 assay component(s) measured or calculated from the ATG_CIS assay. […] This assay endpoint, ATG_CRE_CIS, was analyzed with bidirectional fitting relative to DMSO as the negative control and baseline of activity. […]
Calls of active or inactive are those of the source. Rule for the calls: active = hit-call score of the fitted dose curve at least 0.9, where 1 is the maximum; inactive = score below 0.9.
property: AC50

molecule: CCOc1ccc(NC(=O)CC(C)=O)cc1
AC50: inactive
//
molecule: CCCCCCCCCCCC(=O)OC[C@@H](O)[C@H]1OC[C@H](O)[C@H]1O
AC50: inactive
//
molecule: O=C(Nc1ccc([N+](=O)[O-])cc1)Nc1ccc([N+](=O)[O-])cc1 (tested in a mixture with another compound)
AC50: inactive
//
molecule: O=C(O)CCCCCCCCCCCC(=O)O
AC50: inactive
//
molecule: COc1cc(CCC(C)=O)ccc1O
AC50: inactive

Name the reported AC50 value associated with the molecule Clc1ccc(C(c2ccccc2Cl)C(Cl)Cl)cc1 (stereo not drawn)
inactive

Entry to check: CN(C)C(=O)Nc1ccc(Oc2ccc(Cl)cc2)cc1
inactive

Further, for CCCOC(=O)c1c(Cl)c(Cl)c(Cl)c(Cl)c1C(=O)OCCC ?
171 µM (active)

---

# system-name: human Thyroid Receptor alpha (THRa1), THRA (gene 7067) (UniProt P10827)
# Sequence (P10827 whole entry, looked up): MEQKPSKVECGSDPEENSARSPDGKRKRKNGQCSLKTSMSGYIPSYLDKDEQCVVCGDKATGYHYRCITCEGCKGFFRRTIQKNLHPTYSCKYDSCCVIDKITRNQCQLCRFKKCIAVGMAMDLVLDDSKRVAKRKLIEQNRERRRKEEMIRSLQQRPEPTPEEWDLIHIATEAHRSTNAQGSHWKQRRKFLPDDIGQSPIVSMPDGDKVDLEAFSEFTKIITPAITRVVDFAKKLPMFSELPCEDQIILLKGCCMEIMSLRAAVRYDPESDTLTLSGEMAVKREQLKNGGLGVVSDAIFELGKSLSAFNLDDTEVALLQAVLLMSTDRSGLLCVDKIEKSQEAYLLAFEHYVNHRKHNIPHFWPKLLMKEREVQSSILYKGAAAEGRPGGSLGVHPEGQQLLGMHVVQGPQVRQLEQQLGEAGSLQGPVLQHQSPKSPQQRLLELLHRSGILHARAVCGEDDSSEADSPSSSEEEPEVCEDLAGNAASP
# assay-overview: ATG_THRa1_TRANS: Attagene TRANS-FACTORIAL HepG2 Assay for human Thyroid Receptor alpha (THRa1) (AID 2283014)
Records with an inconclusive call do not appear. Calls of active or inactive are those of the source. The calls were made as follows: active = hit-call score of the fitted dose curve at least 0.9, where 1 is the maximum; inconclusive = response in the unintended direction; inactive = score below 0.9.
One label from this list, please: active, inactive

Tell me the assay call for Nc1ccc2cc(S(=O)(=O)O)cc(O)c2c1N=Nc1ccccc1C(F)(F)F please.
inactive

What about O=Cc1ccccc1S(=O)(=O)O ?
inactive

Please give the result for CCCC(=O)C(CC)Sc1ccoc1C (stereo not drawn) too.
inactive

One more compound: C=C1C[C@]23C[C@@]1(O)CC[C@H]2[C@@]12C=C[C@H](O)[C@@](C)(C(=O)O1)[C@H]2[C@@H]3C(=O)O
inactive

Same for CC(C)c1ccccc1O
inactive

Next up: CCCCN(CCCC)C(=O)N(CCCC)CCCC
inactive

Now consider N#Cc1ccc(CC(=O)c2cccc(C(F)(F)F)c2)cc1 and answer again.
active

Entry to check: O=C(O)CNc1ccccc1
inactive

How about COc1cc([C@@H]2c3cc4c(cc3[C@@H](O[C@@H]3O[C@@H]5CO[C@@H](C)O[C@H]5[C@H](O)[C@H]3O)[C@H]3COC(=O)[C@H]23)OCO4)cc(OC)c1O ?
inactive

Also check CC(C)C[C@H](NC(=O)OCC1c2ccccc2-c2ccccc21)C(=O)O
inactive

// repeat for COC(=O)c1ccc([N+](=O)[O-])cc1 and report
inactive

Would you kindly repeat that for Cc1ccc(OC(=O)c2ccccc2O)cc1 ?
inactive

Lookup CN(C)CCOc1ccc(/C(=C(/CCCl)c2ccccc2)c2ccccc2)cc1
inactive
